- Tested Target: T1, GST-hRpn10^305–377 (human, UniProt P55036 305-377)
- T1 sequence (looked up): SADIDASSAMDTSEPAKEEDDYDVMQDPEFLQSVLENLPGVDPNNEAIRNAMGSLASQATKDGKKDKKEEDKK
- Method Notes: SPR
Observed Property: Kd (nM)
Numeric only. Scale: nM

What measured Kd goes with E6AP AZUL domain, E6AP[24–87] (domain or fragment, human, UniProt Q05086 24-87, looked up) MKRAAAKHLIERYYHQLTEGCGNEACTNEFCASCPTFLRMDNNAAAIKALELYKINAKLCDPHP ?
8.1
